Assay procedure: Inhibitory activity against Bacterial Tyrosyl tRNA Synthetase
pIC50: −log10 of the molar value.
Endpoint name: pIC50

a = CCOC(=O)[C@@H](NC(=O)[C@@H](N)Cc1ccc(O)cc1)[C@@H]1CC[C@H](O)[C@H](O)[C@H]1O
b = CCOC(=O)[C@@H](NC(=O)[C@@H](N)Cc1ccc(O)cc1)[C@@H]1C=C[C@H](O)[C@H](O)[C@H]1O
c = CCOC(=O)[C@H](NC(=O)[C@@H](N)Cc1ccc(O)cc1)[C@@H]1C=C[C@H](O)[C@H](O)[C@H]1O
IN: Output the entries ranked by pIC50 from maximum down to minimum. To answer, write out the labels according to the requested order.
OUT: b, c, a
(b: 8.47, c: 6.91, a: 6.61)

Data provenance: BindingDB's records for doi:10.1016/s0960-894x(01)00475-9
